Target: T1, Human Serum Albumin (human, UniProt P02768 25-609)
T1 construct: also called HSA; antigen
T1 sequence (P02768 25-609 limits assumed): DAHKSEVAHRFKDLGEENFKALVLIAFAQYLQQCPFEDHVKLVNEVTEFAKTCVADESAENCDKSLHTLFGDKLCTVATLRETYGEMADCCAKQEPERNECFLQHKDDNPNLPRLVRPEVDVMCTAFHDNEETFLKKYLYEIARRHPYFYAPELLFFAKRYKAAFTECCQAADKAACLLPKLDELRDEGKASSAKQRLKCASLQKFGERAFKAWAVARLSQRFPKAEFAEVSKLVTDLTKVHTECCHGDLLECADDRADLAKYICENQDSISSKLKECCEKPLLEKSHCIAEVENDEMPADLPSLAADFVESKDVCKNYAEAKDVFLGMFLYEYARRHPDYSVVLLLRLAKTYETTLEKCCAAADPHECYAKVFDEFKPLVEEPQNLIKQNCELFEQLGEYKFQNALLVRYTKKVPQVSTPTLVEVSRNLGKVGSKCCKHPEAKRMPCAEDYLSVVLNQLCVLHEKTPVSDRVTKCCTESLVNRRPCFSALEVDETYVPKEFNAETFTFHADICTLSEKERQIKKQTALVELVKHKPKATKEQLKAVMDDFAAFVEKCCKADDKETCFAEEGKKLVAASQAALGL
Test: SPR (Biacore 2000), purified dAb over HSA (559 RU) on CM5 chip
Assign pKd to each entry below.
Scale for pKd: -log10 of concentration given in mol/L; no unit attached.

[Q] Which pKd value is on record for DOM7h-14-10 A43I (other, name in Kabat numbering, also called A43I mutant of DOM7h-14-10) VL: DIQMTQSPSSLSASVGDRVTITCRASQWIGSQLSWYQQKPGKIPKLLIMWRSSLQSGVPSRFSGSGSGTDFTLTISSLQPEDFATYYCAQGLRHPKTFGQGTKVEIKR ?
[A] 7.88

[Q] Record request: pKd value, item DOM7h-11-15 A43I (other, name in Kabat numbering, also called DOM7h-11-15 A43I mutant) VL: DIQMTQSPSSLSASVGDRVTITCRASRPIGTMLSWYQQKPGKIPKLLILAFSRLQSGVPSRFSGSGSGTDFTLTISSLQPEDFATYYCAQAGTHPTTFGQGTKVEIKR
[A] 8.19

[Q] Which pKd value is on record for DOM7h-11-15 A43D (other, name in Kabat numbering, also called A43D mutant of DOM7h-11-15) VL: DIQMTQSPSSLSASVGDRVTITCRASRPIGTMLSWYQQKPGKDPKLLILAFSRLQSGVPSRFSGSGSGTDFTLTISSLQPEDFATYYCAQAGTHPTTFGQGTKVEIKR ?
[A] 5.15

[Q] Please give the measured pKd for this binder: DOM7h-14-10 (other, also called DOM7h-14-10 parent) VL: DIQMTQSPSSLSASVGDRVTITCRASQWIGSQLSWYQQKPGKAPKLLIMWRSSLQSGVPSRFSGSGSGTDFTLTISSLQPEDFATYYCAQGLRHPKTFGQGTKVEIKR
[A] 7.59

[Q] Name the recorded pKd for DOM7h-14-10 A43D (other, name in Kabat numbering, also called A43D mutant of DOM7h-14-10) VL: DIQMTQSPSSLSASVGDRVTITCRASQWIGSQLSWYQQKPGKDPKLLIMWRSSLQSGVPSRFSGSGSGTDFTLTISSLQPEDFATYYCAQGLRHPKTFGQGTKVEIKR .
[A] 7.93
